The origin of these recorded values is ChEMBL document CHEMBL3046893.

# Test system: Aspergillus niger
# assayMethodText: Antifungal activity against Aspergillus niger MTCC 282
# Assay type: functional
observedProperty: MIC (µg/mL)

In [3]: df
Out[3]:
                                   compound       targetentity  observedproperty  recordednumber
0  Cc1ccc2nc(-c3ccccc3N3C(=O)CSC3c3cccc([N+](=O)[O-])c3)[nH]c2c1 (centres undefined)  Aspergillus niger               MIC             100
1  Cc1ccc2nc(-c3ccccc3N3C(=O)CSC3c3cccc(O)c3)[nH]c2c1 (centres undefined)  Aspergillus niger               MIC            1000
2  Cc1ccc2nc(-c3ccccc3N3C(=O)CSC3c3ccccc3Cl)[nH]c2c1 (centres undefined)  Aspergillus niger               MIC            1000

A = Cc1ccc2nc(-c3ccccc3N3C(=O)CSC3c3ccccc3[N+](=O)[O-])[nH]c2c1 (centres undefined)
B = COC1=CC(=O)C[C@@H](C)[C@]12Oc1c(Cl)c(OC)cc(OC)c1C2=O
C = Cc1ccc2nc(-c3ccccc3N3C(=O)CSC3c3ccc(Cl)cc3)[nH]c2c1 (centres undefined)
[Q] Sort by MIC, descending. Please list the labels in the order you were asked to rank them.
[A] A, C, B
